# credit: PubChem BioAssay (NCI)

Test system: NCI/ADR-RES ovarian
assay_details: NCI-60 one-dose screen, 48 h (100 = growth as untreated, 0 = no growth, -100 = all killed)
measurement_setup: 10 µM unless noted
About 83,000 compounds went through this panel and 20% of them were active in at least one assay; those are over-represented in the sample as a whole. Calls of active or inactive are those of the source. Rule for the calls: active = growth percent below 10; inactive = the rest.
quantity_kind: growth

O=[P+](O)c1cccnc1; 102% (inactive)

Q) Could you share what growth was measured for "N#CCc1ccc(CC#N)cc1" , tested on NCI/ADR-RES ovarian?
A) 110% (inactive)

----------
Tested on: HOP-62 NSCLC
assay_details: NCI-60 one-dose screen, 48 h
measurement_setup: 10 µM unless noted
Description: Growth inhibition of the HOP-62 human Non-Small Cell Lung tumor cell line is measured as a screen for anti-cancer activity. Cells are grown in 96 well plates and exposed to the test compound for 48 hours. Compounds are tested at a single concentration, which is 10^-5 M for most compounds. The reported endpoint is percent growth (GI% or GIPRCNT), where numbers from 0 - 100% represent growth inhibition, and numbers from -100% - 0 represent cell death. […]
Compounds without any hit were thinned out: in the full panel of roughly 83,000, 20% have a hit. Activity calls are given as the source filed them. The calls were made as follows: active = growth percent below 10; inactive = the rest.
Reply using exactly one outcome from yes = active, no = inactive

Before answering, review these 5 worked examples.
O=C1CN2CCC1CC2; no
CO[C@@H]([CH2][Hg][O]C(=O)c1ccccc1)[C@@H]([CH2][Hg][O]C(=O)c1ccccc1)OC; no
CCN1C(=O)NC(=O)C(C)(N2C(=O)c3c(F)c(F)c(F)c(F)c3C2=O)C1=O (centres undefined); no
CCN1C(=O)CC(=O)N(CC)C1=S; no
COc1cc2c(cc1OC)-c1c3c(cc4c1[C@@H](C2)N(C)CC4)OCO3; no

Then this compound:
Q) Outcome? "C[C@]12CC[C@@H](OC(=O)N(CCCl)N=O)C[C@@H]1CC[C@@H]1[C@@H]2CC[C@]2(C)C(=O)CC[C@@H]12"
A) no
